Item-by-item account of IC50
- measured on: full soluble spike trimer of SARS-CoV-2 virus (stabilised, in-house) (SARS-CoV-2, UniProt P0DTC2 14-1208; P10104 458-484)

- binder: "IMPI-059 (antibody, V domains shown) VH: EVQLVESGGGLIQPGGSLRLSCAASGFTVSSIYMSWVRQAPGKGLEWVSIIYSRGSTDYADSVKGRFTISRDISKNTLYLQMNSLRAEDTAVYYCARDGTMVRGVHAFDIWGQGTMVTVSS VL: DIQMTQSPPSLSASIGDRVTITCQASQDISNYLNWYQQKPGKAPKLLIYDASNLETGVPSRFSGSGSGTDFTLTISNLQPEDIVTYYCQQYDNLPSSFGQGTKLEIK"
  IC50 / nM: 8.38
- binder: "IMPI-047 (antibody, V domains shown) VH: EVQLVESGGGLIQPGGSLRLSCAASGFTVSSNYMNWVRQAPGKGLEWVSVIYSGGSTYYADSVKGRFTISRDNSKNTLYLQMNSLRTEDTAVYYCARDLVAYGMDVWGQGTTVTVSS VL: DIQLTQSPSFLSASVGDRVTITCWASQGISSYLAWYQQKPGKAPKVLIYAASTLQSGVPSRFSGSGSGTEFTLTISSLQPEDFATYYCQLLNSNPLTFGGGTKVEIK"
  IC50 / nM: 7.3
- binder: "IMPI-054 (antibody, V domains shown) VH: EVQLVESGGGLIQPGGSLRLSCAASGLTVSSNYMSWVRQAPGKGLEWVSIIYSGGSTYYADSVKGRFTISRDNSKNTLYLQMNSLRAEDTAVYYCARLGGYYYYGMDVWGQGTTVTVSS VL: DIQMTQSPSSLSASVGERVTITCQASQDIRNYLNWYQKKPGKAPKLLIYDSSNLETGVPSRFSGSGSGTDFTFTISSLQPEDIATYYCQQYDNLPITFGQGTRLEIK"
  IC50 / nM: 11.6
- binder: "IMPI-017 (antibody, V domains shown) VH: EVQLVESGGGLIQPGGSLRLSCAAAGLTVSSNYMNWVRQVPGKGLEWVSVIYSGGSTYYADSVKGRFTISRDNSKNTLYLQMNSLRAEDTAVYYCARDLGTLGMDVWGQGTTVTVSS VL: DIQLTQSPSFLSASVGDRVTITCWASQGISTYLAWYQQKPGKAPKLLIYAASTLQSGVPSRFSGSGSGTEFTLTISSLQPEDFATYYCQQLNSYLPTFGQGTKVEIK"
  IC50 / nM: 3.15
